Each recorded value in this set is attributed to the supplement of paper PMC10307832.

- Tested on: A-427
- assayProcedure: relative viability (nuclei count vs DMSO), 5 days (fraction); higher = more cells survive
- conditionContext: first compound 0.2 µM
relative viability under 0.5 gets rule met, anything at or over 0.5 gets rule not met.

Reference set (4 entries):
INSERT INTO assay_data (compound, class) VALUES
  ('Cc1csc(=NC2CCCCC2)n1/N=C/c1ccc(O)c(O)c1O [MIM1] + CCNC(=O)c1noc(-c2cc(C(C)C)c(O)cc2O)c1-c1ccc(CN2CCOCC2)cc1 [Luminespib] (partner 0.01 µM)', 'rule not met'),
  ('Cc1csc(=NC2CCCCC2)n1/N=C/c1ccc(O)c(O)c1O [MIM1] + CC(=O)c1c(C)c2cnc(Nc3ccc(N4CCNCC4)cn3)nc2n(C2CCCC2)c1=O [Palbociclib] (partner 0.5 µM)', 'rule not met'),
  ('Cc1csc(=NC2CCCCC2)n1/N=C/c1ccc(O)c(O)c1O [MIM1] + O=C(c1cc(Cc2n[nH]c(=O)c3ccccc23)ccc1F)N1CCN(C(=O)C2CC2)CC1 [Olaparib] (partner 8 µM)', 'rule not met'),
  ('CN1CCN(CCOc2cc(OC3CCOCC3)c3c(Nc4c(Cl)ccc5c4OCO5)ncnc3c2)CC1 [Saracatinib] + N=C(N)NC(=N)NCCc1ccccc1 [Phenformin] (partner 250 µM)', 'rule met');

Now for another entry.
Query: # strict comparison: is reported relative viability < 0.5? input = Cc1csc(=NC2CCCCC2)n1/N=C/c1ccc(O)c(O)c1O [MIM1] + COc1cc2c(Oc3ccc(NC(=O)C4(C(=O)Nc5ccc(F)cc5)CC4)cc3F)ccnc2cc1OCCCN1CCOCC1 [Foretinib] (partner 0.25 µM)
Response: rule not met

###

# key: entry, value: relative viability
- System: NCI-H1666
- assayProcedure: relative viability (nuclei count vs DMSO), 5 days (fraction); higher = more cells survive
- conditionContext: first compound 0.1 µM
// return just the number, without any unit appended

INSERT INTO results (compound, propertylabel, reportedresult) VALUES
  ('Cc1cn(-c2cc(NC(=O)c3ccc(C)c(Nc4nccc(-c5cccnc5)n4)c3)cc(C(F)(F)F)c2)cn1 [Nilotinib] + Cc1nc(NC(=O)N2CCC[C@H]2C(N)=O)sc1-c1ccnc(C(C)(C)C(F)(F)F)c1 [Alpelisib] (partner 2 µM)', 'relative viability', 0.856);

The compound Cc1cn(-c2cc(NC(=O)c3ccc(C)c(Nc4nccc(-c5cccnc5)n4)c3)cc(C(F)(F)F)c2)cn1 [Nilotinib] + Nc1nc2[nH]cc(CCc3ccc(C(=O)N[C@@H](CCC(=O)O)C(=O)O)cc3)c2c(=O)[nH]1 [Pemetrexed] (partner 0.2 µM) on NCI-H1666: relative viability was 0.9

With NCI-H1666 as the test system, Cc1cn(-c2cc(NC(=O)c3ccc(C)c(Nc4nccc(-c5cccnc5)n4)c3)cc(C(F)(F)F)c2)cn1 [Nilotinib] + CC(=O)Nc1cccc(-n2c(=O)n(C3CC3)c(=O)c3c(Nc4ccc(I)cc4F)n(C)c(=O)c(C)c32)c1 [Trametinib] (partner 0.02 µM) showed relative viability of 0.746

Test item Cc1cn(-c2cc(NC(=O)c3ccc(C)c(Nc4nccc(-c5cccnc5)n4)c3)cc(C(F)(F)F)c2)cn1 [Nilotinib] + O=C(c1cc(Cc2n[nH]c(=O)c3ccccc23)ccc1F)N1CCN(C(=O)C2CC2)CC1 [Olaparib] (partner 8 µM) ; NCI-H1666; reported relative viability was 0.754

The measured relative viability that Cc1cn(-c2cc(NC(=O)c3ccc(C)c(Nc4nccc(-c5cccnc5)n4)c3)cc(C(F)(F)F)c2)cn1 [Nilotinib] + Cc1cc(Nc2cc(N3CCN(C)CC3)nc(Sc3ccc(NC(=O)C4CC4)cc3)n2)n[nH]1 [Tozasertib] (partner 0.1 µM) showed for NCI-H1666 is 0.556
